Value source: ChEMBL document CHEMBL1201862

- ASSAY_SYSTEM: UniProt Q8IL11
- Sequence (Q8IL11 whole entry): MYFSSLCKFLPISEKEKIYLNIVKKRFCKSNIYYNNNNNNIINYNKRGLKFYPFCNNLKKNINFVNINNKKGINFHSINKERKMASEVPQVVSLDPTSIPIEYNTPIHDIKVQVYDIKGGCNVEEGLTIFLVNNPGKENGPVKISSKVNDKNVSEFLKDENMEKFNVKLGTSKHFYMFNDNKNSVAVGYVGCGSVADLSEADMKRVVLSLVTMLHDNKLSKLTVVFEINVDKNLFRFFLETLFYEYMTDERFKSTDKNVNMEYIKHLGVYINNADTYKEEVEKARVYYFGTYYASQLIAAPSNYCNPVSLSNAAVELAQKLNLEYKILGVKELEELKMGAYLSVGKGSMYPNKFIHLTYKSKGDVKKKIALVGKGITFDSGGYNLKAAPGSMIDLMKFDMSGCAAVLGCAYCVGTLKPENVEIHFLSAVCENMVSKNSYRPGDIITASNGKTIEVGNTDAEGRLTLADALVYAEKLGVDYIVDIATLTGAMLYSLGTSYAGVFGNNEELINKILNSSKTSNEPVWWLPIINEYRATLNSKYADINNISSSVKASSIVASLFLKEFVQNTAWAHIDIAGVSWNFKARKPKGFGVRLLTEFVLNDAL
- PROTOCOL_NOTES: P. falciparum M17LAP inhibitors, primary screen, biochemical, fluorogenic H-Leu-NHMec substrate, 1536-well (AID 1619)
- Format: functional
Calls of active or inactive are those of the source.
MEASURED_PROPERTY: IC50

Use these answered entries as a reference point.
> print(dat)
                                   molecule       test.result
1  COc1ccc(CNc2nc3nc(-c4ccccc4)cc(O)n3n2)cc1OC  24.2 µM (active)
2  CC1CCN(S(=O)(=O)c2ccc(NC(=O)CSc3ncccc3C(=O)O)cc2)CC1  9.68 µM (active)
3   Cc1cccc(C(=O)NC(=S)NNC(=O)c2ccccc2Cl)c1    58 µM (active)

# input So what's the measured IC50 for this one? "COc1ccc(/C=N/NC(=O)CSc2nnc(O)nc2O)cc1"
# output 7.36 µM (active)

# input Need IC50 of "CCOc1ccc(NC(=O)CSCC(=O)O)cc1" , thanks.
# output 9.94 µM (active)

# input Please give the measured IC50 for this molecule: CCc1ccc(NC(=O)C2CCCCC2C(=O)O)cc1 (stereo unspecified)
# output 12.1 µM (active)

====

- ASSAY_SYSTEM: DNA dC->dU-editing enzyme APOBEC-3A (Homo sapiens, UniProt P31941)
- Sequence (P31941 whole entry): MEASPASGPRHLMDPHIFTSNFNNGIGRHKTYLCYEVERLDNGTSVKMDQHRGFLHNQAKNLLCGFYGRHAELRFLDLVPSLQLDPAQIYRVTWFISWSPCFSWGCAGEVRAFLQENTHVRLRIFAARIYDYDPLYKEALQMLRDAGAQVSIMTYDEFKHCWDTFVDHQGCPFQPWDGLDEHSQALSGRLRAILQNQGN
- PROTOCOL_NOTES: Dose Response confirmation of small molecule APOBEC3A DNA Deaminase Inhibitors via a fluorescence-based single-stranded DNA deaminase assay. [Related pubchem assays (depositor defined):AID493011, AID493024]
- Format: functional
Active and inactive are the calls of the source.
MEASURED_PROPERTY: IC50

Illustrative cases are given below, each with its answer.
> print(dat)
                           structure.smiles       test.result
1  O=C(CSc1nc2sccc2c(=O)[nH]1)N1CCN(c2ccccc2)CC1  11.5 µM (active)
2  CCc1noc(C)c1C(=O)Nc1cc(S(=O)(=O)N2CCOCC2)ccc1N1CCN(CC)CC1  3.46 µM (active)
3  C[n+]1cc(C(=O)N2CCCCC2)ccc1/C=C/c1c[nH]c2ccccc12  2.44 µM (active)
4  COc1ccc(NC(=O)COc2ccc(/C=C/c3cc[n+](C)cc3)cc2OC)cc1  3.69 µM (active)

# input Please report the recorded IC50 for "Cc1ccc(NC(=O)C2CCN(C(=O)c3cccs3)CC2)c(C)c1" .
# output 4.37 µM (active)

====

- ASSAY_SYSTEM: ATP-dependent molecular chaperone HSP82 (Candida albicans (strain WO-1) (Yeast), UniProt C4YTQ8)
- Sequence (C4YTQ8 whole entry): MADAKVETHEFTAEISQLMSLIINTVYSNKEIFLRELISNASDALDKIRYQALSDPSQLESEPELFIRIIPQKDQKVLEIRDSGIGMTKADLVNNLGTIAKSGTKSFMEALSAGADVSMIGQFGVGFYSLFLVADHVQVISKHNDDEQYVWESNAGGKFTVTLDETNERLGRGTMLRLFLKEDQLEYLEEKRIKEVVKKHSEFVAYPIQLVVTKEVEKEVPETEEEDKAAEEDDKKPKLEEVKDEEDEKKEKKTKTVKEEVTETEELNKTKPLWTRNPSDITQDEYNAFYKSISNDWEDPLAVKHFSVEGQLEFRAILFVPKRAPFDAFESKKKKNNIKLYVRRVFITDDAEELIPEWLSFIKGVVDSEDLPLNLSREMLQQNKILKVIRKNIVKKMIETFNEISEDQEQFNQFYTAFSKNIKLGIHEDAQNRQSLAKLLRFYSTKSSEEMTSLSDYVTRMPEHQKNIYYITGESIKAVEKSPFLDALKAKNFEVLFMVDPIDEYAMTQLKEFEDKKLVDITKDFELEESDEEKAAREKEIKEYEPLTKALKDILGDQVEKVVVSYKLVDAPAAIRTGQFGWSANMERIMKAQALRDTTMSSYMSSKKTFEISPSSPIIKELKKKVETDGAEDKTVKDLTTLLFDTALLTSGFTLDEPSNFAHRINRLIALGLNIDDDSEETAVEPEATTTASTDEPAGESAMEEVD
- PROTOCOL_NOTES: loss of DOC-induced GRE-beta-galactosidase reporter signal, dose response, Hsp90 inhibitor project, S. cerevisiae, luminescence (AID 2400);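 further: beta-galactosidase luminescence from glucocorticoid response element reporter as proxy for Hsp90 function; inhibitor potency where signal loss means Hsp90 inhibition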
- Assay type: functional, cell-based
Calls of active or inactive are those of the source.
Reply using exactly one outcome from YES (active), NO (inactive)

Take a look at these entries with their results.
> print(dat)
                                   compound  assigned.category
1        CCCOc1ccc(C(=O)NNC(=S)NC(=O)CC)cc1                YES
2  Oc1c(C(c2ccccc2Cl)N2CCCC2)ccc2cccnc12 (centres undefined)                 NO
3  [O-][N+]1=c2ccc(Nc3ccccc3)cc2=NC12CCCCC2                 NO

Then this compound:
# input Which outcome was entered for the compound "CC(=O)c1sc(NC(=O)CCS(=O)(=O)c2ccccc2)nc1C" in this test?
# output NO

====

- ASSAY_SYSTEM: Carboxy-terminal domain RNA polymerase II polypeptide A small phosphatase 1 (Homo sapiens)
- Sequence (Q9GZU7 whole entry): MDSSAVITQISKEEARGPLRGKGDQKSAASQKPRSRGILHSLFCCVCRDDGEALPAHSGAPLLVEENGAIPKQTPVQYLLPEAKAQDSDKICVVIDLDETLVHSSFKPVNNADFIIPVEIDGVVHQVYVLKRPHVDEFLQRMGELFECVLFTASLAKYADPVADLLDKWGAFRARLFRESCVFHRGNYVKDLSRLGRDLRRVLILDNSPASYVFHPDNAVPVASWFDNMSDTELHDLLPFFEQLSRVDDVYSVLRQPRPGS
- PROTOCOL_NOTES: inhibitors of CTDSP1, concentration-response testing, biochemical assay, absorbance-based, actives from ultra-high-throughput screening (AID 540297)
- Type: functional
Activity calls are given as the source filed them.
IC50 for assorted molecules

> print(dat)
                                   molecule       test.result
1  O=C(CSc1nnc(COc2ccccc2)n1Cc1ccco1)NCc1ccco1  7.21 µM (active)

Kindly review the next molecule as well.
# input Which IC50 value is on record for "C/C(=N\NC(=O)c1cc(Br)ccc1O)c1cccc(NC(=O)c2ccccc2F)c1" ?
# output 2.94 µM (active)

====

- Tested on: INS1
- PROTOCOL_NOTES: beta cell apoptosis inhibitors, cytokine rescue, dose response, luminescence, retest (AID 449756);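 further: cell death triggered by IL-1 beta plus TNF-alpha plus IFN-gamma mixture; protective hits raise ATP signal compared with cytokine alone wells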
- Assay type: functional, cell-based
- CONDITION_DETAILS: Rattus norvegicus
Calls of active or inactive are those of the source.
Outcomes you can answer with include only these: 1 (active), -1 (inactive)

Answered examples (5):
> print(dat)
                           structure.smiles  assigned.category
1  Cc1ccc(C)c(NC(=O)c2ccccc2NS(=O)(=O)c2cc([N+](=O)[O-])ccc2C)c1                  1
2  CCN(CC)S(=O)(=O)c1cccc(NC(=O)CNc2cccc(S(=O)(=O)N3CCCC3)c2)c1                  1
3  COc1cccc(/C=N/Nc2ccc([N+](=O)[O-])cn2)c1O                  1
4  Cc1cc2nc(NCCCO)n(CC(=O)c3cc(C(C)(C)C)c(O)c(C(C)(C)C)c3)c2cc1C                  1
5  CCOC(=O)[C@@H]1[C@H]2COc3cc(OC)ccc3[C@H]2N2C(=O)N(c3ccc(C(F)(F)F)cc3)C(=O)[C@]12C                  1

# input Can you look up the reported call for "CC(C)Nc1ccc(Nc2ccnc3cc4ccccc4cc23)cc1" for me?
# output 1

# input Answer briefly: the call reported for "CCCCCc1ccc(OCCCC[n+]2ccc(C)cc2)c(CCCCC)c1" in this assay.
# output 1

# input Answer briefly: the call reported for "CCCCN(C)CCNC(=O)c1cc2c(-c3ccccc3F)nn(C)c2s1" in this assay.
# output -1

====

- PROTOCOL_NOTES: inhibitors of firefly luciferase expression or activity, dose response, H4 neuroglioma cells, luminescence (AID 1990)
- Assay type: functional, cell-based
Activity calls are given as the source filed them.
MEASURED_PROPERTY: EC50

> print(dat)
                           structure.smiles       test.result
1  COc1cccc(/C=N/Nc2ccc([N+](=O)[O-])cn2)c1O  2.97 µM (active)

# input What does the record list as EC50 for "Cn1c(NCc2cccnc2)nc2c1c(=O)n(Cc1ccccc1F)c(=O)n2C" ?
# output 18.5 µM (active)

# input Find the recorded EC50 belonging to "COc1ccc([C@@H]2[C@@H]3C(=O)N(C(C)(C)C)C(=O)[C@@H]3[C@]3(C)C(=O)N(c4cccc(F)c4)C(=O)N23)cc1" and report it.
# output > 120 µM (not active)

# input Look up EC50: "O=C(Nc1ccc(-c2nc3cc(NC(=O)c4cccs4)ccc3[nH]2)cc1)c1cccs1"
# output 0.225 µM (active)

# input Quick one: EC50 for "CCOc1ccc(-n2nc3ccc(NC(=O)c4ccc5c(c4)OCCO5)cc3n2)cc1" ?
# output > 120 µM (not active)
